assayed-system: Cytochrome P450 3A4 (Homo sapiens) (UniProt P08684)
Sequence (P08684 whole entry, looked up): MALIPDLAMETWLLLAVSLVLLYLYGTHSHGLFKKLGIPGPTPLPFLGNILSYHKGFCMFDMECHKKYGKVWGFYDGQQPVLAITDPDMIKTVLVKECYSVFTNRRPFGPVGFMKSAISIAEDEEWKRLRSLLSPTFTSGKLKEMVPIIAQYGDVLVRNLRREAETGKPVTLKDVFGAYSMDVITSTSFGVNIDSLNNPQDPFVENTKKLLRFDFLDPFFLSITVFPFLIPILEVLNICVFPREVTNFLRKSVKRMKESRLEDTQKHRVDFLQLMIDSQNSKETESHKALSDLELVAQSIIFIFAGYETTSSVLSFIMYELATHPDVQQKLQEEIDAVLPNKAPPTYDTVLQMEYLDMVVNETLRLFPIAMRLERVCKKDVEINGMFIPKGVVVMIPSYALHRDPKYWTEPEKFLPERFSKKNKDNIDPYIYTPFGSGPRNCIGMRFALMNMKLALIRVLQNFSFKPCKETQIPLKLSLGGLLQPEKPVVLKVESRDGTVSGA
method: Cytochrome P450 Family 3 Subfamily A Member 4 (CYP3A4) small molecule antagonists: luciferase reporter qHTS assay (AID 1671201); note: nearly all actives have a fitted effect of over 50% in size
experimental-parameters: P450-Glo CYP3A4 enzyme, luciferin luminescence, 1 h; series mostly up to 115 µM
Records with an inconclusive call do not appear. Active and inactive are the calls of the source. Calls come from the whole dose curve; as a rule, active = well fitted inhibition curve with a large enough effect in the repeat runs; inconclusive = weak or mixed curves; inactive = no such curve, though single readings can be large or run the other way.
readout-name: Potency

Example compounds with recorded Potency:
{"compound": "O=C(OCCCCCOC(=O)c1ccccc1)c1ccccc1", "assayed-system": "Cytochrome P450 3A4 (Homo sapiens) (UniProt P08684)", "Potency": "inactive"}
{"compound": "CC(=O)Nc1ccn(C2COC(COC(=O)c3ccccc3)O2)c(=O)n1 (stereo not given)", "assayed-system": "Cytochrome P450 3A4 (Homo sapiens) (UniProt P08684)", "Potency": "inactive"}
{"compound": "CC(O)C(C)O (stereo not given)", "assayed-system": "Cytochrome P450 3A4 (Homo sapiens) (UniProt P08684)", "Potency": "inactive"}
{"compound": "Nc1cccc2c(=O)[nH][nH]c(=O)c12", "assayed-system": "Cytochrome P450 3A4 (Homo sapiens) (UniProt P08684)", "Potency": "inactive"}
{"compound": "CCC(C(=O)O)c1ccc(N2Cc3ccccc3C2=O)cc1 (stereo not given)", "assayed-system": "Cytochrome P450 3A4 (Homo sapiens) (UniProt P08684)", "Potency": "inactive"}

Please report the recorded Potency for COC(=O)C(C)(C)C . inactive

Please report the recorded Potency for NC(=O)c1ccccc1 . inactive

Please report the recorded Potency for CCc1ccc(C(=O)C(C)CN2CCCCC2)cc1 (stereo not given) . inactive

====

assayed-system: Aryl hydrocarbon receptor (Homo sapiens)
method: qHTS assay to identify small molecule that activate the aryl hydrocarbon receptor (AhR) signaling pathway (AID 743085);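 note: HG2L7.5c1 human HepG2 liver cells with stably integrated DRE-driven firefly reporter; nearly all actives have a fitted effect of over 15% in size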
experimental-parameters: HepG2 AhR-luc (HG2L7.5c1), luciferase, 24 h; series mostly up to 70.3 µM
Results filed as inconclusive are left out. The source made the active and inactive calls. Calls follow the shape of the dose curve; as a rule, active = well fitted activation curve with a large enough effect in the repeat runs; inconclusive = weak or mixed curves; inactive = no such curve, though single readings can be large or run the other way.
Give your call using only these classes: active, inactive

{"molecule": "O=C(O)c1ccccc1-n1cc(C(=O)O)c(=O)c2cc(Nc3c(F)cc(F)cc3Cl)c(Cl)cc21", "qualitative-label": "inactive"}
{"molecule": "CCCCCCCCCCCCN1CCOCC1", "qualitative-label": "inactive"}
{"molecule": "COC(=O)C(C)(C)C", "qualitative-label": "inactive"}

// next entry
Status in this test for C=C[Si]1(C)O[Si](C)(C=C)O[Si](C)(C=C)O[Si](C)(C=C)O1 (configuration not stated) ? inactive

====

method: qHTS assay to identify small molecule antagonists of the sonic hedgehog signaling (Shh) pathway - cell viability counter screen (AID 1259367); note: nearly all actives have a fitted effect of over 55% in size
experimental-parameters: NIH/3T3 Gli1-Luc viability, CellTiter-Fluor, 24 h; series mostly up to 92.4 µM
Results filed as inconclusive are left out. Activity calls are given as the source filed them. Calls come from the whole dose curve; as a rule, active = well fitted cell-killing curve with a large enough effect in the repeat runs; inconclusive = weak or mixed curves, or effect the other way; inactive = no such curve, though single readings can be large or run the other way.
Give your call using only these classes: TRUE for active, FALSE for inactive

The examples below pair each entry with its known result.
{"compound": "O=P(c1ccccc1)(c1ccccc1)c1ccccc1", "qualitative-label": "FALSE"}
{"compound": "CCCCCCCCC(=O)OCC(C)OC(=O)CCCCCCCC (stereo not drawn)", "qualitative-label": "FALSE"}
{"compound": "N#CCCCC(C#N)CCC#N (stereo not drawn)", "qualitative-label": "FALSE"}
{"compound": "CC(=O)Nc1ccn(C2COC(COC(=O)c3ccccc3)O2)c(=O)n1 (stereo not drawn)", "qualitative-label": "FALSE"}

Status in this test for CCC(=O)O[C@]1(C(=O)COC)[C@@H](C)C[C@H]2[C@@H]3CCC4=CC(=O)C=C[C@]4(C)C3(F)[C@@H](O)C[C@@]21C (stereo partly drawn) ? FALSE

Status in this test for Nc1ccc(F)cc1F ? FALSE

Status in this test for CC/C=C/CCO ? FALSE

Status in this test for OCC(O)c1ccccc1 (stereo not drawn) ? FALSE

Status in this test for O=c1[nH][nH]c2ccccc12 ? FALSE

Status in this test for CCOc1cc(OCC)c(C(C)=O)cc1OCC ? TRUE

Status in this test for COc1ccc(CN(CCN(C)C)c2ncccn2)cc1 ? FALSE

Status in this test for CC1=C(C)C(=O)C(CCCCC#CCCCC#CCO)=C(C)C1=O ? FALSE

Status in this test for CCc1cnc(C(=O)O)c(C(=O)O)c1 ? FALSE

====

method: qHTS RealTime-Glo MT Cell Viability Assay in HepG2 cells - 16 hour (AID 1224885); note: nearly all actives have a fitted effect of over 50% in size
experimental-parameters: RealTime-Glo luminescence; series mostly up to 76.8 µM
Records with an inconclusive call do not appear. The source made the active and inactive calls. The call rests on the fitted dose curve; in most records, active means well fitted cell-killing curve with a large enough effect in the repeat runs; inconclusive means weak or mixed curves; inactive means flat fitted curve, though single readings scatter.
readout-name: activity change, negative = cytotoxic

Example compounds with recorded activity change, negative = cytotoxic:
{"compound": "C[C@]12CCC(=O)C=C1[C@@H]1C[C@@H]1[C@H]1[C@@H]3[C@@H]4C[C@@H]4[C@@]4(CCC(=O)O4)[C@@]3(C)CC[C@@H]12", "activity change, negative = cytotoxic": "inactive"}
{"compound": "CC1(C)C(=O)NC(=O)N1CO", "activity change, negative = cytotoxic": "inactive"}
{"compound": "CCOC(=O)CC(O)(CC(=O)OCC)C(=O)OCC", "activity change, negative = cytotoxic": "inactive"}
{"compound": "[O-][n+]1ccc(Cl)cc1", "activity change, negative = cytotoxic": "inactive"}
{"compound": "C=CC(C)CCC=C(C)C (configuration not stated)", "activity change, negative = cytotoxic": "inactive"}

Please report the recorded activity change, negative = cytotoxic for OCCCO . inactive

Please report the recorded activity change, negative = cytotoxic for CCc1ccc2c(c1)C(=O)c1ccccc1C2=O . inactive

Please report the recorded activity change, negative = cytotoxic for CCC(C)C1N=C(C)C(C)S1 (configuration not stated) . inactive

====

assayed-system: Estrogen receptor beta (Homo sapiens) (UniProt Q92731)
Sequence (Q92731 whole entry, looked up): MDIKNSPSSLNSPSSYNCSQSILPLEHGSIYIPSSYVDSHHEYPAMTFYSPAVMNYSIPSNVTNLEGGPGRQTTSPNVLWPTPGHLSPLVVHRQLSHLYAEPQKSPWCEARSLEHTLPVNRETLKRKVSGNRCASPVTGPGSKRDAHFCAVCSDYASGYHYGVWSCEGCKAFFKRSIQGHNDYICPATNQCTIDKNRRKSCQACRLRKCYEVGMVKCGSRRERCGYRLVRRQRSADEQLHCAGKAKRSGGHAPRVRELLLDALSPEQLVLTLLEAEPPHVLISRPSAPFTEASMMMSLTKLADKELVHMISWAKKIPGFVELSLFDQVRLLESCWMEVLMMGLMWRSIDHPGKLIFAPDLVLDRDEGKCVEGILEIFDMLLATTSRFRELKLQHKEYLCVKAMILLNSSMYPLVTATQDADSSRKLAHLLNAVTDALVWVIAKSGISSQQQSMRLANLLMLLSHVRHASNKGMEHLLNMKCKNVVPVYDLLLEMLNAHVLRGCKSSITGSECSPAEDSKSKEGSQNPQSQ
method: qHTS assay to identify small molecule agonists of the estrogen receptor beta (ER-beta) signaling pathway (AID 1259377)
experimental-parameters: ER-beta-UAS-bla HEK293T, beta-lactamase FRET ratio, 16 h; series mostly up to 92.4 µM
Records with an inconclusive call do not appear. Calls of active or inactive are those of the source. Calls come from the whole dose curve; as a rule, active = well fitted activation curve with a large enough effect in the signal ratio in the repeat runs (not every such curve was filed as active); inconclusive = weak or mixed curves, or effect the other way; inactive = flat fitted curve, though single readings scatter; the % refers to the signal ratio.
readout-name: activation

{"compound": "Cc1nc(C)c(C)nc1C", "activation": "inactive"}
{"compound": "CC(=O)OCC(=O)[C@@]1(O)CC[C@H]2[C@@H]3CCC4=CC(=O)C=C[C@]4(C)[C@@]3(F)[C@@H](O)C[C@@]21C", "activation": "inactive"}
{"compound": "CC(C(=O)O)c1ccc2c(c1)Cc1cccnc1O2 (stereo unspecified)", "activation": "inactive"}
{"compound": "Nc1ccc(F)cc1F", "activation": "inactive"}
{"compound": "CCCCOc1ccc(N)cc1", "activation": "inactive"}
{"compound": "C[Si](C)(C)O[Si](C)(C)O[Si](C)(C)C", "activation": "inactive"}
{"compound": "CC1(C)C(=O)NC(=O)N1CO", "activation": "inactive"}
{"compound": "CC(C)(Cc1c[nH]c2ccccc12)NCC(O)COc1ccccc1C#N (stereo unspecified)", "activation": "inactive"}
{"compound": "FC1(F)C(F)(F)C(F)(F)C2(F)C(F)(C1(F)F)C(F)(F)C(F)(F)C1(F)C(F)(F)C(F)(F)C(F)(F)C(F)(F)C12F (stereo unspecified)", "activation": "inactive"}
{"compound": "FC(F)(Cl)C(F)(Cl)Cl", "activation": "inactive"}

Please report the recorded activation for O=C1OC(=O)C2CC=CCC12 (stereo unspecified) . inactive

Please report the recorded activation for CCCCCCCCCCCCN1CCOCC1 . inactive

Please report the recorded activation for Nc1ccccc1Nc1ccccc1 . inactive

Please report the recorded activation for NC(=O)c1ccccc1 . inactive

Please report the recorded activation for C[C@H]1C[C@H]2[C@@H]3CCC4=CC(=O)C=C[C@]4(C)[C@@]3(F)[C@@H](O)C[C@]2(C)[C@@]1(O)C(=O)COP(=O)(O)O . inactive

Please report the recorded activation for CCOC(C)OCC . inactive

====

method: qHTS assay to identify small molecule agonists of the endoplasmic reticulum stress response signaling pathway (AID 1159516)
experimental-parameters: ESRE-bla HeLa, ER stress beta-lactamase reporter, 5 h; series mostly up to 61 µM
Results filed as inconclusive are left out. Activity calls are given as the source filed them. The call rests on the fitted dose curve; in most records, active means well fitted activation curve with a large enough effect in the signal ratio in the repeat runs (not every such curve was filed as active); inconclusive means weak or mixed curves, or effect the other way; inactive means flat fitted curve, though single readings scatter; the % refers to the signal ratio.
readout-name: activation

Example compounds with recorded activation:
{"compound": "CC(C(=O)O)c1ccc(/C=C2\\CCCCC2=O)cc1 (configuration not stated)", "readout-name": "activation", "reading": "inactive"}
{"compound": "C=CC(C)CCC=C(C)C (configuration not stated)", "readout-name": "activation", "reading": "inactive"}
{"compound": "CC(=O)OCC(=O)[C@@]1(O)CC[C@H]2[C@@H]3CCC4=CC(=O)C=C[C@]4(C)[C@@]3(F)[C@@H](O)C[C@@]21C", "readout-name": "activation", "reading": "inactive"}
{"compound": "Cc1c(Cl)cccc1[N+](=O)[O-]", "readout-name": "activation", "reading": "inactive"}
{"compound": "CC(=O)Nc1ccn(C2COC(COC(=O)c3ccccc3)O2)c(=O)n1 (configuration not stated)", "readout-name": "activation", "reading": "inactive"}
{"compound": "Cc1ccc(NC(=O)c2ccc(CN3CCN(C)CC3)cc2)cc1Nc1nccc(-c2cccnc2)n1", "readout-name": "activation", "reading": "inactive"}

Read the next record carefully.
Please report the recorded activation for Cc1ccc(S(=O)(=O)NC(=O)NC2CCCC2)cc1 . inactive
